Origin of measurements: PubChem BioAssay (NCATS)

- Procedure Summary: AP1 Signaling Pathway (AID 357);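 further: ME-180 reporter cells stimulated with EGF at its EC50 level; on the % scale 0 is the no-effect control and ±100 the full control effect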
- Condition Label: ME-180 (cervical carcinoma) AP-1-bla reporter, EGF-induced, beta-lactamase ratio, 5 h; at 7.69 µM (top of the series) unless noted
Inconclusive results are not listed.
Property Measured: activity change, negative = inhibition (%)
Dear colleague, please return just the value in %, with no unit written.

Input line: Form field: reported activity change, negative = inhibition of "COCCn1c(=O)c(-c2ccc(F)cc2)nc2cnc(OCc3ccccc3)nc21"
Output line: -23.2

Input line: Also need "CC(C)CN1CC[C@@]2(CCCN(C(=O)c3csnn3)C2)C1" , thanks.
Output line: -0.149

Input line: Also need "COc1ccc(-n2c(=O)c(-c3cccc(C#N)c3)nc3cnc(N4CCNCC4)nc32)cc1" , thanks.
Output line: 6.83

Input line: Also need "CN1CCN(c2cc(-c3ccccc3C(F)(F)F)ncn2)CC1" , thanks.
Output line: 8.33

Input line: Also need "CN(C)c1ncc2nc(-c3cccs3)c(=O)n(C[C@H]3CCCO3)c2n1" , thanks.
Output line: -15.4

Input line: Also need "CCNc1ncc2nc(-c3ccc(OC)cc3)c(=O)n(CCOC)c2n1" , thanks.
Output line: -6.96

Input line: Also need "COCC(=O)N1CCC[C@@]2(CCN(c3ncccn3)C2)C1" , thanks.
Output line: -8.65

Input line: Also need "Cc1nc2cnc(N3CCOCC3)nc2n(C[C@H]2CCCO2)c1=O" , thanks.
Output line: -13.4

Input line: Also need "Cc1cnc(CNc2ncnc3ccc(-c4c(C)noc4C)cc23)cn1" , thanks.
Output line: 12.8

Input line: Also need "COC(=O)N1CCC[C@@]2(CCN(C(c3ccccc3)c3ccccc3)C2)C1" , thanks.
Output line: -2.49

Input line: Also need "COc1ccc(-n2c(=O)c(-c3cccs3)nc3cncnc32)cc1" , thanks.
Output line: -19.3

---

- Procedure Summary: qHTS Assay for Lipid Storage Modulators (AID 1519)
- Condition Label: Drosophila S3 cells, BODIPY lipid droplet/cell ratio, laser cytometry; measured here: cell count channel max response; cells loaded with oleic acid
Results filed as inconclusive are left out.
Task for the reader: assign each of the following compounds its reported max response.
Dear colleague, please return just the value in %, with no unit written.

Input line: Form field: reported max response of "CN1CCN(c2ncc3nc(-c4cccs4)c(=O)n(CCC#N)c3n2)CC1"
Output line: 11.3

Input line: Also need "Cn1cccc1C(=O)N1CCC[C@@]2(CCN(Cc3cc(C(F)(F)F)cc(C(F)(F)F)c3)C2)C1" , thanks.
Output line: -0.0419

Input line: Also need "COc1ccc(-n2c(=O)c(-c3cccs3)nc3cnc(N4CCOCC4)nc32)cc1" , thanks.
Output line: 28.1

Input line: Also need "Cn1cccc1C(=O)N1CCC[C@@]2(CCN(Cc3ccccc3)C2)C1" , thanks.
Output line: 5.36

Input line: Also need "COc1ccc(C(=O)N2CCC3(CCN(C)CC3)CC2)cc1" , thanks.
Output line: 8.31

Input line: Also need "CN(C)Cc1ccccc1-c1cc(N(C)Cc2ccco2)ncn1" , thanks.
Output line: 19.9

Input line: Also need "Cc1noc(C)c1-c1cncnc1NCCN1CCOCC1" , thanks.
Output line: 12.2

Input line: Also need "CC(C)NC(=O)N1CC[C@@]2(CCCN(C(=O)Oc3ccccc3)C2)C1" , thanks.
Output line: 8.74

Input line: Also need "O=C(c1cc(C(F)(F)F)cc(C(F)(F)F)c1)N1CCC2(CCCN(Cc3nccs3)C2)CC1" , thanks.
Output line: 17.8

Input line: Also need "CS(=O)(=O)N1CCC[C@@]2(CCN(C(=O)Nc3cccc(F)c3)C2)C1" , thanks.
Output line: 1.7

---

- Tested on: AS120
- Procedure Summary: qHTS profiling for inhibitors of Plasmodium falciparum proliferation (AID 504749); further: nearly all actives have a fitted effect of over 60% in size
- Condition Label: P. falciparum in erythrocytes, SYBR Green DNA, 72 h; series mostly up to 28.7 µM
- Description: NIH National Institute of Allergy and Infectious Diseases [NIAID] NIH Chemical Genomics Center [NCGC] […] Because mature erythrocytes lack DNA, only Plasmodium-derived DNA is detected. NCGC Assay Protocol Summary: The SYBR Green viability assay was adapted from a method described previously (Plouffe et al., 2008). […] The following morning, fluorescence intensity at 485(14) nm excitation and 535(25) nm emission wavelengths was measured on an EnVision (Perkin Elmer) plate reader. […]
Records with an inconclusive call do not appear. Active and inactive are the calls of the source. The call rests on the fitted dose curve; in most records, active means well fitted inhibition curve with a large enough effect; inconclusive means small, poorly fitted or top-dose-only effect; inactive means flat fitted curve, though single readings scatter.
Entry note: the call must match one of 1.0 = active, 0.0 = inactive

Input line: Each molecule tested received a call. Report the one for "COc1ccc(CCNC[C@@H](O)c2ccc(O)cc2)cc1OC" .
Output line: 0.0

Input line: Also need "N[C@H](Cc1ccc(O)c(O)c1)C(=O)O" , thanks.
Output line: 0.0

Input line: Also need CN1C[C@H](C(=O)N[C@]2(C)O[C@@]3(O)C4CCCN4C(=O)[C@H](Cc4ccccc4)N3C2=O)C[C@@H]2c3cccc4[nH]cc(c34)C[C@H]21 (stereo not given in full) , thanks.
Output line: 1.0

Input line: Also need CC(C)C[C@H]1C(=O)N2CCCC2[C@]2(O)O[C@](NC(=O)[C@@H]3C=C4c5cccc6[nH]c(Br)c(c56)C[C@H]4N(C)C3)(C(C)C)C(=O)N12 (stereo not given in full) , thanks.
Output line: 1.0

Input line: Also need "CO[C@H]1/C=C/O[C@@]2(C)Oc3c(C)c(O)c4c(O)c(c(/C=N\N5CCN(C6CCCC6)CC5)c(O)c4c3C2=O)NC(=O)/C(C)=C\C=C\[C@H](C)[C@H](O)[C@@H](C)[C@@H](O)[C@@H](C)[C@H](OC(C)=O)[C@@H]1C" , thanks.
Output line: 1.0

Input line: Also need CN1C(=O)CCC1c1cccnc1 (stereo not given) , thanks.
Output line: 0.0

Input line: Also need "CC(/C=C1\SC(=S)N(CC(=O)O)C1=O)=C\c1ccccc1" , thanks.
Output line: 0.0

Input line: Also need "Oc1ccc(/C=C\c2cc(O)cc(O)c2)cc1" , thanks.
Output line: 0.0

Input line: Also need COc1cc2c(cc1OC)C(c1ccccc1)CN(C)CC2 (stereo not given) , thanks.
Output line: 0.0

Input line: Also need "C[C@@H]1[C@H](O)[C@@H](C)/C=C/C=C/C=C/C=C/C=C/C=C/C=C/[C@H](O[C@@H]2O[C@H](C)[C@@H](O)[C@H](N)[C@@H]2O)C[C@@H]2O[C@](O)(C[C@@H](O)C[C@@H](O)[C@H](O)CC[C@@H](O)C[C@@H](O)CC(=O)O[C@H]1C)C[C@H](O)[C@H]2C(=O)O" , thanks.
Output line: 0.0

---

- Procedure Summary: Panc-1005 Cancer Cell Toxicity qHTS against the NCATS CANVASS Library (AID 1347349); further: nearly all actives have a fitted effect of over 60% in size; further: potency means the concentration at half of the fitted maximal effect
- Condition Label: Panc-1005 viability, CellTiter-Glo luminescence, 72 h; series mostly up to 38.3 µM
Results filed as inconclusive are left out. Calls of active or inactive are those of the source. Calls follow the shape of the dose curve; as a rule, active = well fitted cell-killing curve with a large enough effect; inconclusive = small, poorly fitted or top-dose-only effect; inactive = flat fitted curve, though single readings scatter.
Property Measured: Potency

# count of solved cases: 4
* CC[C@@H]1C[C@@]2(CC)OC(=O)[C@@]3(CC)[C@H](CC)[C@@H]1[C@@H]23 | inactive
* COc1ccc([C@@H]2c3cc4c(cc3C(=O)C(C)C2C)OCO4)cc1OC (stereo partly drawn) | inactive
* C/C=C(/C)c1cc(O)c(C)c2c1Oc1cc(O)cc(C)c1C(=O)O2 | inactive
* C[C@@H]1CC[C@]2(C(=O)O)CC[C@]3(C)C(=C2[C@H]1C)CC[C@@H]1[C@@]2(C)CC[C@H](O)C(C)(C)[C@@H]2CC[C@]13C | 21.1 µM (active)

Input line: Form field: reported Potency of "CC[C@H](O)CCCCC[C@@H]1NC(=O)[C@H]2CCCCN2C(=O)[C@H]([C@H](C)CC)NC(=O)[C@H](Cc2cn(OC)c3ccccc23)NC1=O"
Output line: 18.8 µM (active)

Input line: Also need "C/C(=C\[C@H](C)C(=O)CCCC1CC(=O)NC(=O)C1)[C@@H]1OC(=O)/C=C/CC/C=C/[C@H](O)[C@@H](O)[C@@H]1C" , thanks.
Output line: 0.668 µM (active)

Input line: Also need C=C1C[C@]23C=CC(=O)[C@@](C)(CCCC(C)C(=O)N[C@@H](CO)C(=O)O)[C@@H]2C[C@@H]1CC3 (stereo partly drawn) , thanks.
Output line: inactive

Input line: Also need "Cc1cc(O)cc2c1C(=O)c1c(O)cc(O)cc1C2=O" , thanks.
Output line: inactive

Input line: Also need "COC(=O)C1=C[C@]23C[C@@H](C)CC[C@@H]2[C@@]2(C)CC[C@@H](C(C)C)[C@@](O)(O3)[C@@H]12" , thanks.
Output line: inactive

Input line: Also need COC(=O)c1cc2cc3c(c(O)c2c(=O)o1)OC1(CC3)CC2=C(O1)C(=O)c1c(O)c(OC)cc(OC)c1C2=O (stereo not drawn) , thanks.
Output line: 21.1 µM (active)

Input line: Also need "COc1ccc2[nH]c3c(c2c1)CCN1C[C@H]2C[C@@H](OC(=O)c4cc(OC)c(OC)c(OC)c4)[C@H](OC)[C@@H](OC)[C@H]2C[C@H]31" , thanks.
Output line: 13.3 µM (active)

Input line: Also need "C[C@@]12CCC[C@@](C)(C(=O)O)[C@H]1C[C@@H](O)[C@@]13C[C@@H](CC[C@@H]21)[C@](C)(O)C3" , thanks.
Output line: inactive

Input line: Also need "CN1CC[C@]23c4ccccc4N[C@H]1[C@]21CCN(C)[C@H]3Nc2ccccc21" , thanks.
Output line: inactive

Input line: Also need "C/C(=C\[C@H](C)C(=O)/C=C/CC1CC(=O)NC(=O)C1)[C@@H]1OC(=O)CCCC/C=C/[C@H](O)[C@@H](O)[C@@H]1C" , thanks.
Output line: 14.9 µM (active)

Input line: Also need "C[C@H]1C=C[C@H]2CCCC[C@@H]2[C@H]1C(=O)[C@H]1CC2=C(C(=O)O)CCN2C1=O" , thanks.
Output line: inactive
